# Assay summary: Stability of chlorin e6 analogue salts in aqueous solution (HPLC purity over time)
# Type: physicochemical
# Condition context: distilled deionised water, 30° C., air and ambient light not excluded, 0.5 hours
Measured attribute: Purity by HPLC after 0.5 hours (%)

Compound: C=Cc1c(C)c2cc3nc(c(CC(=O)O)c4[nH]c(cc5nc(cc1[nH]2)C(C)=C5CC)c(C)c4C(=O)O)[C@@H](CCC(=O)O)[C@@H]3C [Photodithiazine, reference compound]
Measured attribute: Purity by HPLC after 0.5 hours (%)
Endpoint result: 88.56

Compound: C=Cc1c(C)c2cc3nc(c(CC(=O)O)c4[nH]c(cc5nc(cc1[nH]2)C(C)=C5CC)c(C)c4C(=O)OC)[C@@H](CCC(=O)O)[C@@H]3C [Compound 12]
Measured attribute: Purity by HPLC after 0.5 hours (%)
Endpoint result: 83.73

Compound: C=Cc1c(C)c2cc3nc(c(CC(=O)O)c4[nH]c(cc5nc(cc1[nH]2)C(C)=C5CC)c(C)c4C(=O)OC)[C@@H](CCC(=O)O)[C@@H]3C [Compound 20]
Measured attribute: Purity by HPLC after 0.5 hours (%)
Endpoint result: 81.39

Compound: C=Cc1c(C)c2cc3nc(c(CC(=O)N(C)CCCC)c4[nH]c(cc5nc(cc1[nH]2)C(C)=C5CC)c(C)c4C(=O)O)[C@@H](CCC(=O)O)[C@@H]3C
Measured attribute: Purity by HPLC after 0.5 hours (%)
Endpoint result: 94.15

---

# Assay summary: Stability of chlorin e6 analogue salts in aqueous solution (HPLC purity over time)
# Format: physicochemical
# Condition context: distilled deionised water, 30° C., air and ambient light not excluded, 4 hours

Molecule: C=Cc1c(C)c2cc3nc(c(CC(=O)N(C)CCCC)c4[nH]c(cc5nc(cc1[nH]2)C(C)=C5CC)c(C)c4C(=O)O)[C@@H](CCC(=O)O)[C@@H]3C
Purity by HPLC after 4 hours (%): 93.94
--
Molecule: C=Cc1c(C)c2cc3nc(c(CC(=O)O)c4[nH]c(cc5nc(cc1[nH]2)C(C)=C5CC)c(C)c4C(=O)O)[C@@H](CCC(=O)O)[C@@H]3C [Photodithiazine, reference compound]
Purity by HPLC after 4 hours (%): 84.33
--
Molecule: C=Cc1c(C)c2cc3nc(c(CC(=O)O)c4[nH]c(cc5nc(cc1[nH]2)C(C)=C5CC)c(C)c4C(=O)OC)[C@@H](CCC(=O)O)[C@@H]3C [Compound 12]
Purity by HPLC after 4 hours (%): 81.10
--
Molecule: C=Cc1c(C)c2cc3nc(c(CC(=O)O)c4[nH]c(cc5nc(cc1[nH]2)C(C)=C5CC)c(C)c4C(=O)OC)[C@@H](CCC(=O)O)[C@@H]3C [Compound 20]
Purity by HPLC after 4 hours (%): 81.28

---

# Assay summary: Stability of chlorin e6 analogue salts in aqueous solution (HPLC purity over time)
# Format: physicochemical
# Condition context: aqueous solution, 30° C., overall rating in words
Where a name gives a salt, the structure may show the parent alone.

Compound: C=Cc1c(C)c2cc3nc(c(CC(=O)O)c4[nH]c(cc5nc(cc1[nH]2)C(C)=C5CC)c(C)c4C(=O)O)[C@@H](CCC(=O)O)[C@@H]3C [Photodithiazine, reference compound]
Stability: Poor

Compound: C=Cc1c(C)c2cc3nc(c(CC(=O)O)c4[nH]c(cc5nc(cc1[nH]2)C(C)=C5CC)c(C)c4C(=O)OC)[C@@H](CCC(=O)O)[C@@H]3C [Compound 13, Chlorin e6 5-methyl Ester Disodium Salt]
Stability: Poor

Compound: C=Cc1c(C)c2cc3nc(c(CC(=O)OCC)c4[nH]c(cc5nc(cc1[nH]2)C(C)=C5CC)c(C)c4C(=O)O)[C@@H](CCC(=O)O)[C@@H]3C [Compound 16]
Stability: Good
